Reported Affinity HEK293T-18.2 EC50 is given for each of the following molecules.
- experimental.system: T1, human Claudin18.2 (Homo sapiens, UniProt P56856)
- T1 construct: expressed in transfected cells
- procedure.summary: Cell-based ELISA affinity of murine antibodies on HEK293T-Claudin18.2 (human) cells
- Type: binding
Output spec: scalar in ng/mL, unitless text.

Entry 23F2F2: anti-human Claudin18.2 murine monoclonal antibody, VH SEQ ID NO: 48, VL SEQ ID NO: 49 (antibody, V domains shown) VH: QVQLKESGGGLVQPGGSMKLSCAASGFTFSDAWMNWVRQSPEKGLEWVAEIRNKADYHATHYVESVTGRFTISRDDSKSSVYLQMNRLRAEDTGIYYCTRNYGSRFDYWGQGTTLTVSS VL: DIVETQSPSSLTVTAGEKVTMSCKSSQSLLNSGNQRNYLTWYQQKPGHPPKLLIYWASTRESGVPDRFTGSGSGTDFTLTVTSVQAEDLAVYYCQNDYFYPLAFGTGTKLELK — recorded Affinity HEK293T-18.2 EC50 = 6.015

Entry 8H11A10: anti-human Claudin18.2 murine monoclonal antibody, VH SEQ ID NO: 44, VL SEQ ID NO: 45 (antibody, V domains shown) VH: QVQLKESGPVLVAPSQSLSITCTVSGFSLTNYGVHWVRQPPGKGLEWLGVIWSGGRTNYNSALMSRLSISKDNSKSQVFLKMNSLQTDDTAMYYCAKRDGIYGDYWGQGTSVTVSS VL: DIVETQSPSSLTVTAGEKVTMSCKSSQSLLNSGNQKNYLTWYQQKPGQSPKLLIYWASTRESGVPDRFTGSGFGTDFTLTISSVQAEDLAVYYCQNDYIYPLTFGAGTKLELK — recorded Affinity HEK293T-18.2 EC50 = 12.32

Entry 1A6G10: anti-human Claudin18.2 murine monoclonal antibody, VH SEQ ID NO: 46, VL SEQ ID NO: 47 (antibody, V domains shown) VH: QVQLKESGGGLVKPGGSLKLSCAASGFTFSSYAMSWVRQTPEKRLEWVAAIHSNGGSTYNSDTMRDRFTISRDHAKNTLYLQMSSLRSEDTALYYCGRQSFGNALDYWGQGTSVTVSS VL: DIQMTQSPSSLTVTAGEKVTLTCKSSQSLLNSGNQKNYLTWYQQKPGQPPKLLIYWASTRESGVPDRFTGSGSGTFFTLTISSVQAEDLAVYFCQNDYVYPFTFGAGTQLELK — recorded Affinity HEK293T-18.2 EC50 = 5.024

Entry 32F7A6: anti-human Claudin18.2 murine monoclonal antibody, VH SEQ ID NO: 52, VL SEQ ID NO: 53 (antibody, V domains shown) VH: QIQLVQSGPELRKPGETVKISCKASGYTFTAYTMGWVKQAPGKGLEWMAWINTYSGVPTYAADFKGRFAFSLETSASTAYLLINNLKNEDTATYFCARGVRGNSMDYWGQGTSVTVSS VL: DIVETQSPSSLTVTVGERVTLSCKSSQSLLNSGNQRNYLTWSQQKPGQPPKLLIYWASTRESGVPNRFTGGGSGTYFTLTISSVQVEDLAVYYCQNTYSFPFTFGTGTKLEIK — recorded Affinity HEK293T-18.2 EC50 = 2.399
